Source of measurements: ChEMBL document CHEMBL5346978

target: UniProt:P10635; assay: Inhibition of CYP2D6 in human liver microsomes using dextromethorphan as substrate assessed as residual activity at 10 uM preincubated for 5 mins followed by substrate addition and measured after 15 mins in presence of NADPH by LC-MS/MS analysis; assay type: ADME, Microsome; settings: probe dextromethorphan, time 20 min, read-out: Activity
Sequence (P10635 whole entry): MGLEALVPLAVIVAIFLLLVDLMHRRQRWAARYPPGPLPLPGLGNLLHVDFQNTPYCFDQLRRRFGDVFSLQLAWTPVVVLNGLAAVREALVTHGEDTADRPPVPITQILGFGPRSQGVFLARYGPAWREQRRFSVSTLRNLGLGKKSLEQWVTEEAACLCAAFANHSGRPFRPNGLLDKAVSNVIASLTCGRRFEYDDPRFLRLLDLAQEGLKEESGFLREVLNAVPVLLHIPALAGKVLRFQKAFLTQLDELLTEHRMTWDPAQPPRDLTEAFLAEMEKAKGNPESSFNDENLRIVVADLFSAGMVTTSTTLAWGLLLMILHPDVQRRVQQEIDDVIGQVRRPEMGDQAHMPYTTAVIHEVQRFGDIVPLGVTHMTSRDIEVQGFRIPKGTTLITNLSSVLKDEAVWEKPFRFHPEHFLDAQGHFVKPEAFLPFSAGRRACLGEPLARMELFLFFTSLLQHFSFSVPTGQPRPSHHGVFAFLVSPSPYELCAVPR
ASSAY READOUT: activity at 0.25 h, 10 µM (%)

COMPOUND	UNIT ABBREVIATION	NUMERIC RESULT
CC(C)Oc1ccc(COc2ccc3c(c2)CCN(S(=O)(=O)CCC(=O)O)C3C)cc1C#N (centres undefined)	%	87.6
CC(C)Oc1ccc(COc2ccc3c(c2)CCCN(S(=O)(=O)CCC(=O)O)C3)cc1C#N	%	94.8
CC(C)Oc1ccc(COc2ccc3c(c2)CCCN(S(=O)(=O)CCO)C3)cc1C#N	%	79.1
CC(C)Oc1ccc(COc2ccc3c(n2)CCN(S(=O)(=O)CCC(=O)O)C3)cc1C#N	%	85.3
CC(C)Oc1ccc(COc2ccc3c(c2)CCCN(S(=O)(=O)CC(=O)O)C3)cc1C#N	%	89.4
CC(C)Oc1ccc(COc2ccc3c(c2)CCCN(S(=O)(=O)CCCO)C3)cc1C#N	%	89.4
CC(C)Oc1ccc(COc2ccc3c(c2)OCCN(S(=O)(=O)CCCO)C3)cc1C#N	%	75.6
CC(C)Oc1ccc(COc2ccc3c(c2)CCN(C(=O)CCC(=O)O)C3)cc1C#N	%	54.9
CC(C)Oc1ccc(COc2ccc3c(c2)CCN(CCC(=O)O)C3)cc1C#N	%	95.4
